Source: patent US20120245154A1

# Target entity: Recombinant human BACE1 (Homo sapiens, UniProt P56817)
# Sequence (P56817 46-501): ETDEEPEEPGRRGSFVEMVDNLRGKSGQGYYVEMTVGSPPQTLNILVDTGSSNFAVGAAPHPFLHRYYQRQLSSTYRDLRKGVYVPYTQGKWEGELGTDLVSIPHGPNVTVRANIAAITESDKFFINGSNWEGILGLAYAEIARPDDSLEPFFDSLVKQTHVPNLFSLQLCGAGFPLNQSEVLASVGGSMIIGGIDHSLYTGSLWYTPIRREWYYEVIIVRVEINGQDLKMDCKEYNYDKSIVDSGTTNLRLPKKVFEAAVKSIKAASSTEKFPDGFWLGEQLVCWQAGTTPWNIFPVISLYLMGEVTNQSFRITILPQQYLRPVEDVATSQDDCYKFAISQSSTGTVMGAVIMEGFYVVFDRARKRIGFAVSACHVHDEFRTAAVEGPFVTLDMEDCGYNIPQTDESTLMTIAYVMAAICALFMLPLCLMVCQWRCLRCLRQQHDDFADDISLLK
# Assay overview: Assay of BACE1 inhibiting activity
# Study conditions: Recombinant human BACE1 7.4 nM, substrate peptide 18 nM, pH 5.0, 30° C., 3 hours; read-out: IC50 (50% inhibitory concentration against the enzymatic activity)
Measured parameter: IC50 (nM)

>>> print(df.to_string())
                                smiles_code  val
0  CCC1=C[C@@](C)(c2cc(NC(=O)c3ccc(C#N)cn3)ccc2F)N=C(N)S1   12
